Below, each entry is listed with its recorded Ki.
Target: Delta-type opioid receptor (Homo sapiens, UniProt P41143)
Sequence (P41143 whole entry): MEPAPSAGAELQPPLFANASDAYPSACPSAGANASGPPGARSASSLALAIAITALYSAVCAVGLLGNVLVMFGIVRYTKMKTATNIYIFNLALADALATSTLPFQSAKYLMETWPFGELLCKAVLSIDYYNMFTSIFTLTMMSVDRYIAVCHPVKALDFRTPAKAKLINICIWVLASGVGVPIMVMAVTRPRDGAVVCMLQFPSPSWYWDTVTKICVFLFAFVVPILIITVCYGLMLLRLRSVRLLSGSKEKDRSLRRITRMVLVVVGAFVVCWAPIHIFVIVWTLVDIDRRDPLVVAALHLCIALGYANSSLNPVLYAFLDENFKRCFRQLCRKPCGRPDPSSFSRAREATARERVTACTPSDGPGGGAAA
Test: Displacement of [3H]DADLE from human delta opioid receptor expressed in CHO cells by liquid scintillation counting
Reply with a number, then the unit it belongs to.

moleculeSmiles: CS(=O)(=O)O[C@@H]1CC[C@@]2(O)[C@H]3Cc4ccc(O)c5c4[C@@]2(CCN3CC2CC2)[C@H]1O5
Ki: 93.1 nM

Query: Ki; subject: Cc1ccc(S(=O)(=O)O[C@@H]2CC[C@@]3(O)[C@H]4Cc5ccc(O)c6c5[C@@]3(CCN4CC3CC3)[C@H]2O6)cc1
5.16 nM

Then this molecule: O=C(O[C@@H]1CC[C@@]2(O)[C@H]3Cc4ccc(O)c5c4[C@@]2(CCN3CC2CC2)[C@H]1O5)N(c1ccccc1)c1ccccc1
74.6 nM

// same read-out, input: CN(C)C(=O)O[C@@H]1CC[C@@]2(O)[C@H]3Cc4ccc(O)c5c4[C@@]2(CCN3CC2CC2)[C@H]1O5
334 nM

---

The following molecules are listed with their measured Ratio Ki values.
Species: Homo sapiens
Experiment: Selectivity ratio of Ki for human kappa opioid receptor to Ki for human mu opioid receptor
Note: the reply should be a number with no unit written.

Solved entries (count: 3):
moleculeSmiles: O=C(O[C@@H]1CC[C@@]2(O)[C@H]3Cc4ccc(O)c5c4[C@@]2(CCN3CC2CC2)[C@H]1O5)N(c1ccccc1)c1ccccc1
Ratio Ki: 26.3
//
moleculeSmiles: Cc1ccc(S(=O)(=O)O[C@@H]2CC[C@@]3(O)[C@H]4Cc5ccc(O)c6c5[C@@]3(CCN4CC3CC3)[C@H]2O6)cc1
Ratio Ki: 2.1
//
moleculeSmiles: CS(=O)(=O)O[C@@H]1CC[C@@]2(O)[C@H]3Cc4ccc(O)c5c4[C@@]2(CCN3CC2CC2)[C@H]1O5
Ratio Ki: 6.1

Okay, next one:
Give the measured Ratio Ki of CN(C)C(=O)O[C@@H]1CC[C@@]2(O)[C@H]3Cc4ccc(O)c5c4[C@@]2(CCN3CC2CC2)[C@H]1O5 .
15.2

---

Reported values: pKi for Kappa-type opioid receptor (Homo sapiens), one per item.
# log scale: pKi equals minus log10 of the concentration in mol/L

Below are worked cases with known answers.
moleculeSmiles: Cc1ccc(S(=O)(=O)O[C@@H]2CC[C@@]3(O)[C@H]4Cc5ccc(O)c6c5[C@@]3(CCN4CC3CC3)[C@H]2O6)cc1
recordedNumber: 8.78
//
moleculeSmiles: O=C(O[C@@H]1CC[C@@]2(O)[C@H]3Cc4ccc(O)c5c4[C@@]2(CCN3CC2CC2)[C@H]1O5)N(c1ccccc1)c1ccccc1
recordedNumber: 7.83
//
moleculeSmiles: CN(C)C(=O)O[C@@H]1CC[C@@]2(O)[C@H]3Cc4ccc(O)c5c4[C@@]2(CCN3CC2CC2)[C@H]1O5
recordedNumber: 7.55

Now look at this entry.
Fill blank: measured pKi of the compound CS(=O)(=O)O[C@@H]1CC[C@@]2(O)[C@H]3Cc4ccc(O)c5c4[C@@]2(CCN3CC2CC2)[C@H]1O5 is ____.
8.17

---

Species on record: Homo sapiens
Assay: Selectivity ratio of Ki for human delta opioid receptor to Ki for human mu opioid receptor
// values below are reported Ratio Ki
Kindly provide the number alone.

moleculeSmiles: O=C(O[C@@H]1CC[C@@]2(O)[C@H]3Cc4ccc(O)c5c4[C@@]2(CCN3CC2CC2)[C@H]1O5)N(c1ccccc1)c1ccccc1
recordedNumber: 133

Give the measured Ratio Ki of CN(C)C(=O)O[C@@H]1CC[C@@]2(O)[C@H]3Cc4ccc(O)c5c4[C@@]2(CCN3CC2CC2)[C@H]1O5 .
180

Try this compound too: Cc1ccc(S(=O)(=O)O[C@@H]2CC[C@@]3(O)[C@H]4Cc5ccc(O)c6c5[C@@]3(CCN4CC3CC3)[C@H]2O6)cc1
6.5

Same read-out for CS(=O)(=O)O[C@@H]1CC[C@@]2(O)[C@H]3Cc4ccc(O)c5c4[C@@]2(CCN3CC2CC2)[C@H]1O5 ?
83.8
